Would you kindly list IC50 (pSTAT3) for each of these binders?
Molecular target: T1, human IL-23R endogenously expressed on DB cells (CRL-2289) (human, UniProt Q5VWK5 24-629)
T1 sequence (looked up): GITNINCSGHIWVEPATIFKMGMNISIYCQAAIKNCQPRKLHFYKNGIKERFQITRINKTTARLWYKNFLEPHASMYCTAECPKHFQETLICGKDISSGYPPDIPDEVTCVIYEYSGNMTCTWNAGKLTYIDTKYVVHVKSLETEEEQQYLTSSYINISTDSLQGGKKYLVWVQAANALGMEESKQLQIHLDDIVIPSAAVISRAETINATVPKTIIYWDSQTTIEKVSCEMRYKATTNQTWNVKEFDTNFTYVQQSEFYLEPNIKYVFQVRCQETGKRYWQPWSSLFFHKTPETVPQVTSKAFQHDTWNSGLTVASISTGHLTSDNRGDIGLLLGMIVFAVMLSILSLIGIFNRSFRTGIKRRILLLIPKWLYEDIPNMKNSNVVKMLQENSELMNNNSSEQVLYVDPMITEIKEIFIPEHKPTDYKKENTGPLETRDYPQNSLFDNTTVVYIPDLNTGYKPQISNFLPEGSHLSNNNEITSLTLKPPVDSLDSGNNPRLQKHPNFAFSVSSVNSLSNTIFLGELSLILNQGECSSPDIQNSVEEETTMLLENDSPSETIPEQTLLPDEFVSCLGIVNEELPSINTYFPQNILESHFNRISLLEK
Experiment: cell-based or functional assay
*1 amine or outer side, *2 acyl side, *3 side chain or, on linkers, in order; H or OH if unused. Bridges are numbered along the chain shown (N, C = ends). Primed or numbered codes have the meaning given here. Where no end group is shown, it is not given here. [ ]: non-standard residue; d: D form. 4‑Aminomethyl‑phenylacetyl = 4-aminomethyl-phenylacetyl unit, its amine closes the lactam, O=C(Cc1ccc(CN[*:1])cc1)[*:2]; 1,3‑dibromopropan‑2‑one = linker (CAS 816-39-7) joining two Cys as 1,3-dithio-propan-2-one bridge -SCH2C(=O)CH2S-; 1,3‑dibromopropan‑2‑one(3) = linker giving 1,3-dithio-propan-2-one bridge -SCH2C(=O)CH2S- between Cys; 2Nal = N[C@@H](Cc1ccc2ccccc2c1)C(=O)O; AEF = NCCOc1ccc(C[C@H](N)C(=O)O)cc1; αMeL = CC(C)C[C@](C)(N)C(=O)O; CH2COCH2 = O=C(C[*:1])C[*:2]; Dab = NCC[C@H](N)C(=O)O; βAla = NCCC(=O)O
The answer is to be given in nM; state only the numeric part.

DCSCWQCWWXCR (H-DC(1a)SC(2a)WQC(2a)WW[2-Me-Leu]C(1a)R-[NH2]; (1a)=[2,11] and (2a)=[4,7] 1,3-dithio-propan-2-one bridges) [Compound 1] has a reported IC50 (pSTAT3) of 783

Notebook: Ac-DESCWQCW[2Nal][αMeL]KNG-NH2 (lactam 2-11; linker 4-7 via CH2COCH2; SMILES CC(=O)N[C@@H](CC(=O)O)C(=O)N[C@H]1CCC(=O)NCCCC[C@@H](C(=O)N[C@@H](CC(N)=O)C(=O)NCC(N)=O)NC(=O)[C@](C)(CC(C)C)NC(=O)[C@H](Cc2ccc3ccccc3c2)NC(=O)[C@H](Cc2c[nH]c3ccccc23)NC(=O)[C@@H]2CSCC(=O)CSC[C@H](NC(=O)[C@H](CO)NC1=O)C(=O)N[C@@H](Cc1c[nH]c3ccccc13)C(=O)N[C@@H](CCC(N)=O)C(=O)N2) [Compound 59] , IC50 (pSTAT3) read as 297

For this binder ( Ac-DKSCWQCWWLER-NH2 (lactam 2-11; linker 4-7 via 1,3‑dibromopropan‑2‑one) [Compound 7] ), measured IC50 (pSTAT3) is 159

IC50 (pSTAT3) measured on [4‑Aminomethyl‑phenylacetyl]SCWQC[AEF][2Nal][αMeL]ES-NH2 (lactam (positions not given here); linker 3-6 via CH2COCH2; not fully specified (bridges); printed as [4-Aminomethyl-phenylacetyl](1c)*SC(2a)WQC(2a)[Y(2-aminoethoxy)][2-Nal][2-Me-Leu]E(1c)S-[NH2]) [Compound 81] = 20.7

The measured IC50 (pSTAT3) associated with Ac-KSCWQC[AEF][2Nal][αMeL]ER-NH2 (lactam 1-10; linker 3-6 via CH2COCH2; SMILES CC(=O)N[C@H]1CCCCNC(=O)CC[C@@H](C(=O)N[C@@H](CCCNC(=N)N)C(N)=O)NC(=O)[C@](C)(CC(C)C)NC(=O)[C@H](Cc2ccc3ccccc3c2)NC(=O)[C@H](Cc2ccc(OCCN)cc2)NC(=O)[C@@H]2CSCC(=O)CSC[C@H](NC(=O)[C@H](CO)NC1=O)C(=O)N[C@@H](Cc1c[nH]c3ccccc13)C(=O)N[C@@H](CCC(N)=O)C(=O)N2) [Compound 47] reads 17.2

For Ac-DESCWQCW[2Nal]LKR-NH2 (lactam 2-11; linker 4-7 via CH2COCH2) [Compound 17] the binder record lists IC50 (pSTAT3) as 366

Item: [4‑Aminomethyl‑phenylacetyl]SCWQC[AEF][2Nal][αMeL]E[βAla]-NH2 (lactam N-10; linker 3-6 via 1,3‑dibromopropan‑2‑one(3)) [Compound 119] | IC50 (pSTAT3): 16.7

Reported IC50 (pSTAT3) for [4‑Aminomethyl‑phenylacetyl]VEWQ[Dab][AEF][2Nal][αMeL]E[Dab]-NH2 (lactam N-10, 3-6; SMILES CC(C)C[C@]1(C)NC(=O)[C@H](Cc2ccc3ccccc3c2)NC(=O)[C@H](Cc2ccc(OCCN)cc2)NC(=O)[C@@H]2CCNC(=O)CC[C@H](NC(=O)[C@H](C(C)C)NC(=O)Cc3ccc(cc3)CNC(=O)CC[C@@H](C(=O)N[C@@H](CCN)C(N)=O)NC1=O)C(=O)N[C@@H](Cc1c[nH]c3ccccc13)C(=O)N[C@@H](CCC(N)=O)C(=O)N2) [Compound 126] was 28

Documented IC50 (pSTAT3) of [4‑Aminomethyl‑phenylacetyl]SCWQC[AEF][2Nal][αMeL]ER-NH2 (lactam N-10; linker 3-6 via CH2COCH2; SMILES CC(C)C[C@]1(C)NC(=O)[C@H](Cc2ccc3ccccc3c2)NC(=O)[C@H](Cc2ccc(OCCN)cc2)NC(=O)[C@@H]2CSCC(=O)CSC[C@H](NC(=O)[C@H](CO)NC(=O)Cc3ccc(cc3)CNC(=O)CC[C@@H](C(=O)N[C@@H](CCCNC(=N)N)C(N)=O)NC1=O)C(=O)N[C@@H](Cc1c[nH]c3ccccc13)C(=O)N[C@@H](CCC(N)=O)C(=O)N2) [Compound 52] : 7.85
